Entry source: patent US20250304643A1

Biological target: human GIPR (Homo sapiens)
Sequence (P48546 22-466): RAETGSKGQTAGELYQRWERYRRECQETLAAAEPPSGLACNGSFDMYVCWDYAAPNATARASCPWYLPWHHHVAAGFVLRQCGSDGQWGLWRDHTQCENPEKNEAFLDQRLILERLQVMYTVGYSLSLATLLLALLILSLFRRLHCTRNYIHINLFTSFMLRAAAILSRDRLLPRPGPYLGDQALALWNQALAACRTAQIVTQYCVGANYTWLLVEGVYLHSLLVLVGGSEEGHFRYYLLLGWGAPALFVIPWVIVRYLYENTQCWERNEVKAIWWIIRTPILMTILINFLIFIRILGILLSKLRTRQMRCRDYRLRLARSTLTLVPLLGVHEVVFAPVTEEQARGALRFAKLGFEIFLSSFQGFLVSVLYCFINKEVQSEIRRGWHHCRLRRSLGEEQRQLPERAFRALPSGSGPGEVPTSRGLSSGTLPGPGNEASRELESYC
Format: cell-based
Parameters: host or cells: HEK293
Settings: beta-arrestin 2 recruitment, normalized to highest concentration of GIP; NA = no activity
Emax ± SD (%) below 30% gives NOT MET; Emax ± SD (%) at or above it gives MET.

hey, is Emax ± SD (%) for this one >= 30%? H-Aib-DGTFISDY-K(γGlu-C16)-TAib-LDNLAARDFINWLIQTKITKNDWKHNITQ-OH [Compound no. 37]
NOT MET

hey, is Emax ± SD (%) for this one >= 30%? H-Aib-DGTFISDYS-K(γGlu-C16)-Aib-LDNLAARDFINWLIQTKITK-OH [Compound no. 35]
MET

hey, is Emax ± SD (%) for this one >= 30%? H-Aib-DGTFISDY-K(γGlu-C16)-TILDNLAARDFINWLIQTKITK-OH [Compound no. 11]
MET

hey, is Emax ± SD (%) for this one >= 30%? H-Aib-DGTFISDY-K(γGlu-C16)-T-Aib-LDALAARDFIEWLIQTKITK-OH [Compound no. 33]
NOT MET

hey, is Emax ± SD (%) for this one >= 30%? H-Aib-DG-K(γGlu-C16 diacid)-FISDYST-Aib-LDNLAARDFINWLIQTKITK-OH [Compound no. 25]
NOT MET

hey, is Emax ± SD (%) for this one >= 30%? H-Aib-DG-K(γGlu-C10)-FISDYST-Aib-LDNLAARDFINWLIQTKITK-OH [Compound no. 24]
MET
